// values below are reported IC50
biological target: recombinant p70 S6 kinase (S6K1) (Homo sapiens, UniProt P23443); assay: In vitro p70 S6 kinase assay (ADP-Glo Kinase assay system); assay type: biochemical; conditions: 30 min pre-incubation, ATP 10 μM, 1 hr, read-out: IC50, inhibition of recombinant S6K1 activity
Sequence (P23443 whole entry): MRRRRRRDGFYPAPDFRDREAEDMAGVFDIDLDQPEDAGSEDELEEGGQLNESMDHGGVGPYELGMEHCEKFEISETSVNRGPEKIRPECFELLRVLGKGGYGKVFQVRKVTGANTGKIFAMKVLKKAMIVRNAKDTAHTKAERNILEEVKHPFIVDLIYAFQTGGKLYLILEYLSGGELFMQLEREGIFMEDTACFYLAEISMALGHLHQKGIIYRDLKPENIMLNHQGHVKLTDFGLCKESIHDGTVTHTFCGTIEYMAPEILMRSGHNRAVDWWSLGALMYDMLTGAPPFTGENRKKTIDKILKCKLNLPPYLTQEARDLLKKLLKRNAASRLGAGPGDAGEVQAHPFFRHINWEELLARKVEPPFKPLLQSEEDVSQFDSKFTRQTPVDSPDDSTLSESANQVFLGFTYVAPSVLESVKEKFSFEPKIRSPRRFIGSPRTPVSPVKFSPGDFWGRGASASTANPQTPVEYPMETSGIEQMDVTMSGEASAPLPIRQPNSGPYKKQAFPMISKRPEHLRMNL

{"COMPOUND": "C/C(O)=C(\\C#N)C(=O)Nc1ccc(C(F)(F)F)cc1 [A77 1726]", "IC50": "~80 µM"}
{"COMPOUND": "Cc1oncc1C(=O)Nc1ccc(C(F)(F)F)cc1 [leflunomide]", "IC50": "~55 µM"}
